# testDetails: self-splicing fitness, log relative to wild type (ln ratio); higher = more splicing; Tetrahymena group I intron in knt gene, E. coli kanamycin selection, DiMSum; sequences stand for … in CUCUCU…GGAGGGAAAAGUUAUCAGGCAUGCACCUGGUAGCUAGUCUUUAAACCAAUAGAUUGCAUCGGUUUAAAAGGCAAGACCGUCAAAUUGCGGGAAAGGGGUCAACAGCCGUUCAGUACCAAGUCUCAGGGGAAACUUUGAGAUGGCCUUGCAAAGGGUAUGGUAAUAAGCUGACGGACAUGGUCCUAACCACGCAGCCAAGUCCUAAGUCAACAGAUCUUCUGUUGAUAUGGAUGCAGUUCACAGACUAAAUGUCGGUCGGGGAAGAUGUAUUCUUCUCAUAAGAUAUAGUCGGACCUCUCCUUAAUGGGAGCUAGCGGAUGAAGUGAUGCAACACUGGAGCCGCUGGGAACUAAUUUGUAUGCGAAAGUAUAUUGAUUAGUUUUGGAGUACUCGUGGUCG;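 also: selection with 25 µg/mL kanamycin versus none on LB agar overnight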
# condition: 37 °C
In this scheme, each record receives a class according to its self-splicing fitness (ln); the ranges are Low = under -2, Mid = from -2 up to -0.2, High = -0.2 and over

*Q* Form: Item = `UAUCAGCAAUAUUACGAUGG` ; Class = ?
*A* High

*Q* Consider `CGUCAGCAAUAUUACGGGCU` . To which self-splicing fitness (ln) class does it belong?
*A* Mid

*Q* Which of the defined bands does the recorded self-splicing fitness (ln) of `AAAAAGCAAUAUUACGCGUA` sit within?
*A* High

*Q* Into which category would you place `UUCUAGCAAUAUUACGUACU` ?
*A* Low

*Q* Pick a category. Item: `CUUGAGCAAUAUUACGCGUG`
*A* High

*Q* Categorize the following entry: `AGCUAGCAAUAUUACGUAGC`
*A* Low

*Q* # classify by self-splicing fitness (ln) band: `GAUCAGCAAUAUUACGGUAU`
*A* Mid

*Q* Lab note: sort `CUGGAGCAAUAUUACGCCUG` into the matching self-splicing fitness (ln) band.
*A* Mid

---

# testDetails: self-splicing fitness, log relative to wild type (ln ratio); higher = more splicing; Tetrahymena group I intron in knt gene, E. coli kanamycin selection, DiMSum; sequences stand for … in CUCUCU…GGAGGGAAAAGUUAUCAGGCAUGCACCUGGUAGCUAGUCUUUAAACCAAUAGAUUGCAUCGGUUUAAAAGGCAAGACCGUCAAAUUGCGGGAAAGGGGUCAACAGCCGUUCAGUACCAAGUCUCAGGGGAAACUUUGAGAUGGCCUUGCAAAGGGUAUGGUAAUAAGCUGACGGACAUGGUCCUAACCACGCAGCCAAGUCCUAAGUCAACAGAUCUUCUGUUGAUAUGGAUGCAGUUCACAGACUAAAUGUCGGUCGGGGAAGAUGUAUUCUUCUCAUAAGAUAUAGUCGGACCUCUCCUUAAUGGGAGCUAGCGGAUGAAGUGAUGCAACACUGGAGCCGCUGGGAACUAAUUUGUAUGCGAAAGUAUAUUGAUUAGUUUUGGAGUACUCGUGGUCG
# condition: 37 °C
// bucketize self-splicing fitness (ln): lo: < -2; mid: ≥ -2 and < -0.8; hi: ≥ -0.8

*Q* Bin this entry: `UUUAAGCAAUAUUACGUGGG`
*A* lo

*Q* Sort `CAACAGCAAUAUUACGAAGG` into one of the categories.
*A* hi

*Q* Please indicate the class for `ACGCAGCAAUAUUACGCGCA` based on its self-splicing fitness (ln).
*A* hi

*Q* Sort into band: `AAGGAGCAAUAUUACGUCAA`
*A* lo

*Q* Given `CUUUAGCAAUAUUACGUUUA` , name the class its self-splicing fitness (ln) places it in.
*A* mid

*Q* Assign a category based on measured self-splicing fitness (ln) for `UGCUAGCAAUAUUACGGCGU` and give only the class name.
*A* mid

*Q* Field: class (self-splicing fitness (ln)) — entry: `UUCGAGCAAUAUUACGGGUG`
*A* mid

---

# testDetails: self-splicing fitness, log relative to wild type (ln ratio); higher = more splicing; Tetrahymena group I intron in knt gene, E. coli kanamycin selection, DiMSum; sequences stand for … in CUCUCU…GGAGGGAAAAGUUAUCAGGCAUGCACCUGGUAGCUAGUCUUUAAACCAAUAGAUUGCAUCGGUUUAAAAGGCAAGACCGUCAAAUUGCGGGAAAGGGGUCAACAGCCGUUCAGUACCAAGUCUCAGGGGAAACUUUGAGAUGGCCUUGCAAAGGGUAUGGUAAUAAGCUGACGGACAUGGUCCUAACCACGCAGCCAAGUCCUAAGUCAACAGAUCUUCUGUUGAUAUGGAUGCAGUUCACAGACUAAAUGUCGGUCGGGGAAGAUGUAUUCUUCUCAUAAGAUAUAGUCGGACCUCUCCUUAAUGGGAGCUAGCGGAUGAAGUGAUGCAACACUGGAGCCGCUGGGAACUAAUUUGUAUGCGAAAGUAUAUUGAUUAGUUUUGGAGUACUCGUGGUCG
# condition: 37 °C
measure: self-splicing fitness (ln)
API note: the answer field is a bare number with no unit suffix.

*Q* So what does the record say about self-splicing fitness (ln) for `GCAGAGCAAUAUUACGAAGG` ?
*A* -1.42

*Q* What does the record list as self-splicing fitness (ln) for `GCCGAGCAAUAUUACGACUU` ?
*A* -0.625

*Q* Would you kindly share the measured self-splicing fitness (ln) for `ACACAGCAAUAUUACGUGCG` ?
*A* -0.606

*Q* Any idea what self-splicing fitness (ln) was measured for `GCGCAGCAAUAUUACGUCCA` ?
*A* -0.0959

*Q* What value of measured self-splicing fitness (ln) is listed for `UGUAAGCAAUAUUACGCCGG` ?
*A* -0.237

*Q* Record request: self-splicing fitness (ln) value, item `UAGCAGCAAUAUUACGAAGA`
*A* -1.29

*Q* Form field: reported self-splicing fitness (ln) of `CGUAAGCAAUAUUACGUUUA`
*A* -1.41

*Q* Sample `GCGUAGCAAUAUUACGUCAC` — what was its self-splicing fitness (ln)?
*A* -0.245

*Q* Query: self-splicing fitness (ln); subject: `CAUUAGCAAUAUUACGGAUC`
*A* -1.6

*Q* Entry `CUACAGCAAUAUUACGAGGC` : reported self-splicing fitness (ln) = ?
*A* -1.35

*Q* Quick check: self-splicing fitness (ln) of `CCGGAGCAAUAUUACGCAGG` ?
*A* -2.67

*Q* Form field: reported self-splicing fitness (ln) of `GCGGAGCAAUAUUACGGACU`
*A* -0.993

*Q* # query: self-splicing fitness (ln) of entry `AUUAAGCAAUAUUACGAUUU`
*A* 1.04

*Q* # query: self-splicing fitness (ln) of entry `UAGAAGCAAUAUUACGUCGU`
*A* -0.904

*Q* Returns the measured self-splicing fitness (ln) for the input sequence. Input: `UUCGAGCAAUAUUACGAUGU`
*A* -2.7

*Q* Sample `UAGAAGCAAUAUUACGCUAA` — what was its self-splicing fitness (ln)?
*A* -0.983

*Q* Recorded self-splicing fitness (ln) for `GGGAAGCAAUAUUACGUCUU` , please?
*A* -0.159

*Q* Item `CACUAGCAAUAUUACGAUUU` has what recorded self-splicing fitness (ln)?
*A* -2.2

*Q* Recorded self-splicing fitness (ln) of `CCAUAGCAAUAUUACGAAUC` , please.
*A* -1.38

*Q* Find the recorded self-splicing fitness (ln) belonging to `UUGCAGCAAUAUUACGUUUG` and report it.
*A* -0.998

*Q* Quick check: self-splicing fitness (ln) of `UAACAGCAAUAUUACGUGGA` ?
*A* -1.44

*Q* Consider the sequence `ACAUAGCAAUAUUACGCCGC` and give its measured self-splicing fitness (ln).
*A* -2.65

*Q* Tell me the measured self-splicing fitness (ln) of `ACGUAGCAAUAUUACGCCCA` , please.
*A* -0.952

---

# testDetails: self-splicing fitness, log relative to wild type (ln ratio); higher = more splicing; Tetrahymena group I intron in knt gene, E. coli kanamycin selection, DiMSum; sequences stand for … in CUCUCU…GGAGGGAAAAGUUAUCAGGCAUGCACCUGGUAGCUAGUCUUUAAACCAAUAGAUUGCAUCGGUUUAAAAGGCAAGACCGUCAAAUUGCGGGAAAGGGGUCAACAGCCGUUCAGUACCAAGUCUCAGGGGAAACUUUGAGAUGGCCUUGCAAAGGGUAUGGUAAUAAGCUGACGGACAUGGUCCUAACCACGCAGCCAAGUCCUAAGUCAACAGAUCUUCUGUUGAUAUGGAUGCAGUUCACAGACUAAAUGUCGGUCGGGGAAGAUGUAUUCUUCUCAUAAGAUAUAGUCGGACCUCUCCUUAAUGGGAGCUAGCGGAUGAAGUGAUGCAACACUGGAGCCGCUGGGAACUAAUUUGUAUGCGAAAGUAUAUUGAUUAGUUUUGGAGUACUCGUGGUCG
# condition: 37 °C
Kindly return met if reported self-splicing fitness (ln) is no lower than -1; return not met if it is lower.

*Q* Is it the case that `GGAAAGCAAUAUUACGUCAU` has self-splicing fitness (ln) reaching or exceeding -1?
*A* not met

*Q* Entry `UUUCAGCAAUAUUACGGUAG` : is its self-splicing fitness (ln) no less than -1?
*A* met

*Q* # bool: self-splicing fitness (ln) of `AGGGAGCAAUAUUACGGUCG` >= -1
*A* not met

*Q* Decide: is the reported value of self-splicing fitness (ln) for `GCUAAGCAAUAUUACGCUAA` equal to or greater than -1?
*A* not met

*Q* Does self-splicing fitness (ln) meet or surpass -1 for `UAGCAGCAAUAUUACGUAAA` ?
*A* not met

*Q* Kindly determine if self-splicing fitness (ln) recorded for `UCACAGCAAUAUUACGCGUA` is above or exactly -1.
*A* met

*Q* Please tell me: is the sequence `GGUAAGCAAUAUUACGGCUC` at or over -1 in terms of self-splicing fitness (ln)?
*A* met

*Q* Confirm if self-splicing fitness (ln) reported for the sequence `CCAGAGCAAUAUUACGGAAG` is -1 or above.
*A* not met

*Q* Determine whether this sequence has self-splicing fitness (ln) no lower than -1: `ACCGAGCAAUAUUACGUCUU`
*A* not met

*Q* Threshold query (self-splicing fitness (ln) >= -1) on `GUUCAGCAAUAUUACGGACC`
*A* not met

*Q* Textbook exercise: given the entry `AGCCAGCAAUAUUACGAUAU` , state whether its self-splicing fitness (ln) is greater than or equal to -1.
*A* not met

*Q* Quick check: does `GUCGAGCAAUAUUACGGUAG` have self-splicing fitness (ln) greater than or equal to -1?
*A* not met

*Q* Please indicate if the recorded self-splicing fitness (ln) for `AUACAGCAAUAUUACGUCGU` meets or exceeds -1.
*A* met

*Q* Quick check: does `AACGAGCAAUAUUACGUCCA` have self-splicing fitness (ln) greater than or equal to -1?
*A* not met

*Q* Kindly determine if self-splicing fitness (ln) recorded for `CGAGAGCAAUAUUACGAUAA` is above or exactly -1.
*A* not met

*Q* Evaluate `AAACAGCAAUAUUACGACGA` : self-splicing fitness (ln) at minimum -1?
*A* met

*Q* Textbook exercise: given the entry `UCCAAGCAAUAUUACGAAAG` , state whether its self-splicing fitness (ln) is greater than or equal to -1.
*A* not met

*Q* In plain terms: is recorded self-splicing fitness (ln) at least -1 for `AAGUAGCAAUAUUACGGCAG` ?
*A* not met

*Q* I'd appreciate it if you could say whether `UCCCAGCAAUAUUACGUUCU` has self-splicing fitness (ln) at least equal to -1.
*A* not met

*Q* API: above_or_equal(metric=self-splicing fitness (ln), cutoff=-1) for item `GUUCAGCAAUAUUACGAAGA`
*A* met

*Q* Please indicate if the recorded self-splicing fitness (ln) for `ACGGAGCAAUAUUACGUUUA` meets or exceeds -1.
*A* not met

*Q* Check if self-splicing fitness (ln) >= -1 (inclusive). Item: `UGAUAGCAAUAUUACGACGA`
*A* met

*Q* Please tell me: is the sequence `CAGUAGCAAUAUUACGUUAC` at or over -1 in terms of self-splicing fitness (ln)?
*A* not met
